Listed here: items and their measured IC50.
EXPERIMENTAL TARGET: Keap1 Kelch domain (321-609) / TAMRA-labeled 16mer NRF2 peptide (ETGE motif) (Homo sapiens)
Construct: the Kelch domain (321-609) of Keap1 is used
MEASUREMENT DESCRIPTION: NRF2-Keap1 FP Assay (Keap1 Kelch fluorescence polarization)
ASSAY CONDITIONS: 20 nM Keap1 (321-609), 8 nM Tamra labeled peptide

// worked examples, IC50 included
MOLECULE	IC50
Cn1cc(C2CC2c2c(C(=O)O)cnn2-c2cccc(-c3cccc(OC4CCCCC4)c3)c2)nn1 (stereo not drawn)	10 to 100 nM
CC[C@H]1c2ccccc2OC(C)(C)CN1Cc1cccc(-c2cccc(-n3ncc(C(=O)O)c3[C@@H]3C[C@H]3c3cn(C)nn3)c2)c1 (single isomer, unassigned; isomer 1)	10 to 100 nM

Note to self: IC50 recorded for CN(CC1CC1)C(=O)c1cccc(-c2cccc(-n3ncc(C(=O)O)c3[C@@H]3C[C@H]3c3cn(C)nn3)c2)c1F (racemic) was 10 to 100 nM

---

Listed here: items and their measured IC50.
EXPERIMENTAL TARGET: full length Keap1 protein / full length NRF2 protein (Homo sapiens, UniProt Q14145)
Construct: full length NRF2 protein and full length Keap1 protein (Keap1 exists a dimer) are used; His
Sequence (Q14145 whole entry): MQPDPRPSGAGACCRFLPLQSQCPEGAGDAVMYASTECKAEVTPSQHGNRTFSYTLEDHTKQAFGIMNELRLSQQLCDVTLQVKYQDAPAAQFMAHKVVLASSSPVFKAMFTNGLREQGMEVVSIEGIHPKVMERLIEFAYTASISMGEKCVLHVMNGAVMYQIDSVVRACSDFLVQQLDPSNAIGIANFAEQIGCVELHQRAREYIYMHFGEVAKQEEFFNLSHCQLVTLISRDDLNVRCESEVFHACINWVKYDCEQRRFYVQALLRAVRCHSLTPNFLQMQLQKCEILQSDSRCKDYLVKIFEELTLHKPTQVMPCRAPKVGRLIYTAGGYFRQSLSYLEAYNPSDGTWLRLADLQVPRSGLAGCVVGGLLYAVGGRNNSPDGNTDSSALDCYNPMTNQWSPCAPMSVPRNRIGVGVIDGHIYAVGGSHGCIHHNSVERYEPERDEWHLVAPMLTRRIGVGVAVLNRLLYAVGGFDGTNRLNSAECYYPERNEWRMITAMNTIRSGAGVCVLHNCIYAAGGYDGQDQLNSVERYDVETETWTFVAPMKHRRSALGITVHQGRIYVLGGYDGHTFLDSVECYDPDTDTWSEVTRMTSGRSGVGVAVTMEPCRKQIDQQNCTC
MEASUREMENT DESCRIPTION: NRF2-Keap1 TR-FRET Low Protein Assay
Type: binding
ASSAY CONDITIONS: 1.25 nM Keap1 FlagHis and 2.5 nM biotin-NRF2 added
Protocol: NRF2-Keap1 TR-FRET Low Protein Assay In the NRF2-Keap1 TR-FRET (time-resolved fluorescence resonance energy transfer) low protein assay, full length NRF2 protein and full length Keap1 protein (Keap1 exists a dimer) are used. […] Plates are spun at 500 rpm for 1 minute, incubated for 1 hour at RT, and read on an Envision plate reader using a 320 nm excitation filter and 615 nm and 665 nm emission filters. […]

Note to self: IC50 recorded for C[C@@H]1Cc2ccc(Br)cc2S(=O)(=O)N(Cc2cccc(-c3cccc(-n4ncc(C(=O)O)c4[C@@H]4C[C@H]4c4cn(C)nn4)c3)c2)C1 (single isomer, unassigned; isomer 2) was 10 to 100 nM

Note to self: IC50 recorded for Cn1cc([C@@H]2C[C@H]2c2c(C(=O)O)cnn2-c2cccc(-c3cccc(CN4Cc5ccccc5CC(C)(C)C4)c3)c2)nn1 (racemic) was 100 to 1000 nM

Note to self: IC50 recorded for `O=C(O)c1cnn(-c2cccc(-c3cccc(C(=O)N(CC4CCCC4)CC4CC4)c3F)c2)c1C1CC1` was 10 to 100 nM

Note to self: IC50 recorded for Cn1cc([C@H]2C[C@@H]2c2c(C(=O)O)cnn2-c2cccc(-c3cccc(C(=O)N4CCCC(C)(C)C4)c3F)c2)nn1 (racemic) was < 10 nM

Note to self: IC50 recorded for CC(Oc1cccc(-c2cccc(-n3ncc(C(=O)O)c3[C@H]3C[C@@H]3c3cn(C)nn3)c2)c1)C1CCCCC1 (stereo partly shown) [Example 165] was < 10 nM

Note to self: IC50 recorded for CC[C@@H]1CN(Cc2cccc(-c3cccc(-n4ncc(C(=O)O)c4[C@@H]4C[C@H]4c4cn(C)nn4)c3)c2)S(=O)(=O)c2cccnc2O1 (racemic) was < 10 nM

---

EXPERIMENTAL TARGET: Keap1 Kelch domain (321-609) / TAMRA-labeled 16mer NRF2 peptide (ETGE motif) (Homo sapiens)
Construct: the Kelch domain (321-609) of Keap1 is used
MEASUREMENT DESCRIPTION: NRF2-Keap1 FP Assay (Keap1 Kelch fluorescence polarization)
ASSAY CONDITIONS: 20 nM Keap1 (321-609), 8 nM Tamra labeled peptide
Listed here: items and their measured IC50.

// worked examples, IC50 included
COMPOUND	IC50
CN(C)C(=O)c1cccc(-c2cccc(-n3ncc(C(=O)O)c3C3CC(c4ccccc4)C3)c2)c1 (stereo not drawn)	100 to 1000 nM
CCC[C@@H]1CCCCN1C(=O)c1cccc(-c2cc(Cl)cc(-n3ncc(C(=O)O)c3C3CC3c3cn(C)nn3)c2)c1 (stereo partly drawn)	10 to 100 nM
Cn1cc([C@H]2C[C@@H]2c2c(C(=O)O)cnn2-c2cccc(-c3cccc(OC[C@H]4CC[C@H](Cl)CC4)c3)c2)nn1 (racemic)	100 to 1000 nM
Cn1cc([C@H]2C[C@@H]2c2c(C(=O)O)cnn2-c2cccc(-c3cccc(OCC4CCCC(Cl)C4)c3)c2)nn1 (mixture of isomers)	100 to 1000 nM

Note to self: IC50 recorded for CC[C@@H]1CN(Cc2cccc(-c3cccc(-n4ncc(C(=O)O)c4[C@H]4C[C@@H]4c4cn(C(C)C)nn4)c3)c2)Cc2ccccc2O1 (racemic) was 10 to 100 nM

Note to self: IC50 recorded for `CCc1nc(-c2cccc(-c3cccc(-n4ncc(C(=O)O)c4C4CC4)c3)c2)no1` was 1000 to 10000 nM

---

Listed here: items and their measured IC50.
EXPERIMENTAL TARGET: Keap1 Kelch domain (321-609) / TAMRA-labeled 16mer NRF2 peptide (ETGE motif) (Homo sapiens, UniProt Q14145)
Construct: the Kelch domain (321-609) of Keap1 is used
Sequence (Q14145 321-609): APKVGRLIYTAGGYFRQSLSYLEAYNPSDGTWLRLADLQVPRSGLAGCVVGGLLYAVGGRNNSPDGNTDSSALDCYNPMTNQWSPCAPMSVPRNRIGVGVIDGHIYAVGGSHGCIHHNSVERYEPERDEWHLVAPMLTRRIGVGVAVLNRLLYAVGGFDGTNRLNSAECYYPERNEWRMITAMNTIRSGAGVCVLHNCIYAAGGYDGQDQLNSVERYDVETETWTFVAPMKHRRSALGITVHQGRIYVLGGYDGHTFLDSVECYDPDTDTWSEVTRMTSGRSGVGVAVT
MEASUREMENT DESCRIPTION: NRF2-Keap1 FP Assay (Keap1 Kelch fluorescence polarization)
ASSAY CONDITIONS: 20 nM Keap1 (321-609), 8 nM Tamra labeled peptide

COMPOUND	OBSERVED MEASUREMENT
CC(Oc1cccc(-c2cccc(-n3ncc(C(=O)O)c3C3CC3)c2)c1)C1CCCCC1 (stereo not shown) [Example 60]	1000 to 10000 nM

Note to self: IC50 recorded for Cc1ccnn1-c1cccc(-c2cccc(-n3ncc(C(=O)O)c3C3CC3)c2)c1F [Example 39] was 100 to 1000 nM

Note to self: IC50 recorded for O=C(O)c1cnn(-c2cccc(-c3cccc(C(=O)N4CCCC5(CCCOC5)C4)c3F)c2)c1C1CC1 (stereo not shown) [Example 43] was 10 to 100 nM

Note to self: IC50 recorded for C[C@H](Oc1cccc(-c2cccc(-n3ncc(C(=O)O)c3[C@@H]3C[C@H]3c3cn(C)nn3)c2)c1F)C1CCCCC1 [Example 104] was 10 to 100 nM

Note to self: IC50 recorded for CCC[C@@H]1CCCCN1C(=O)c1cccc(-c2cc(C)cc(-n3ncc(C(=O)O)c3[C@@H]3C[C@H]3c3cn(C)nn3)c2)c1 (single isomer, unassigned) [Example 155] was 10 to 100 nM

Note to self: IC50 recorded for O=C(O)c1cnn(-c2cccc(-c3cccc(C(=O)N4CCCCC4CCC(F)(F)F)c3F)c2)c1C1CC1 (stereo not shown) [Example 38] was 10 to 100 nM

Note to self: IC50 recorded for CC[C@@H]1CN(Cc2cccc(-c3cccc(-n4ncc(C(=O)O)c4[C@@H]4C[C@H]4c4cn(C)nn4)c3)c2)S(=O)(=O)c2cccnc2O1 (racemic) [Example 138] was 10 to 100 nM

---

EXPERIMENTAL TARGET: full length Keap1 protein / full length NRF2 protein (Homo sapiens, UniProt Q14145)
Construct: full length NRF2 protein and full length Keap1 protein (Keap1 exists a dimer) are used; His
MEASUREMENT DESCRIPTION: NRF2-Keap1 TR-FRET Low Protein Assay
Format: binding
ASSAY CONDITIONS: 1.25 nM Keap1 FlagHis and 2.5 nM biotin-NRF2 added
pIC50: −log10 of the molar value.
Listed here: items and their measured pIC50.

Note to self: pIC50 recorded for Cn1cc([C@@H]2C[C@H]2c2c(C(=O)O)cnn2-c2cccc(-c3cccc(OCC4CCCCC4C(F)(F)F)c3)c2)nn1 (mixture of isomers) [Example 148] was > 8.00

Note to self: pIC50 recorded for C[C@H](Oc1cccc(-c2cccc(-n3ncc(C(=O)O)c3[C@@H]3C[C@H]3c3cn(CC(F)(F)F)nn3)c2)c1)C1CCCCC1 [Example 97] was 7.00 to 8.00

Note to self: pIC50 recorded for O=C(O)c1cnn(-c2cccc(-c3cccc(C(=O)N(CC4CC4)CC4CC4)c3F)c2)c1C1CC1 [Example 8] was 7.00 to 8.00

---

Listed here: items and their measured IC50.
EXPERIMENTAL TARGET: full length Keap1 protein / full length NRF2 protein (Homo sapiens)
Construct: full length NRF2 protein and full length Keap1 protein (Keap1 exists a dimer) are used; His
MEASUREMENT DESCRIPTION: NRF2-Keap1 TR-FRET Assay
Assay type: binding
ASSAY CONDITIONS: 25 nM Keap1-FlagHis and 50 nM biotin-NRF2 added

// worked examples, IC50 included
COMPOUND	EXPERIMENTAL TARGET	IC50
O=C(O)c1cnn(-c2cccc(-c3cccc(C(=O)N4CCCCC4)c3F)c2)c1C1CC1	full length Keap1 protein / full length NRF2 protein (Homo sapiens)	1 to 10 µM
Cn1cc([C@H]2C[C@@H]2c2c(C(=O)O)cnn2-c2cccc(-c3cccc(OCc4cccc(-c5ccccc5)c4)c3)c2)nn1 (racemic)	full length Keap1 protein / full length NRF2 protein (Homo sapiens)	1 to 10 µM
O=C(O)c1cnn(-c2cccc(-c3cccc(C(=O)N4CCCCC4C4CCCC4)c3F)c2)c1C1CC1 (stereo not shown)	full length Keap1 protein / full length NRF2 protein (Homo sapiens)	0.1 to 1 µM
O=C(O)c1cnn(-c2cccc(-c3cccc(C(=O)N4C5CCCC4CCC5)c3F)c2)c1C1CC1	full length Keap1 protein / full length NRF2 protein (Homo sapiens)	0.1 to 1 µM
COCC1CCCCN1C(=O)c1cccc(-c2cccc(-n3ncc(C(=O)O)c3C3CC3)c2)c1F (stereo not shown)	full length Keap1 protein / full length NRF2 protein (Homo sapiens)	1 to 10 µM
CC(CC1CCCCC1)Oc1cccc(-c2cccc(-n3ncc(C(=O)O)c3C3CC3)c2)c1 (stereo not shown)	full length Keap1 protein / full length NRF2 protein (Homo sapiens)	10 to 100 µM

In the following, a different compound is considered.
Note to self: IC50 recorded for Cn1cc([C@@H]2C[C@H]2c2c(C(=O)O)cnn2-c2cccc(-c3cccc(OCC4CCCSC4)c3)c2)nn1 (mixture of isomers) was 0.1 to 1 µM

Origin of values: patent US10364256B2
